Experiment: Pharmacokinetic study after single intravenous injection
Assay type: in vivo, SD rats
Conditions: Sprague-Dawley, rat, plasma, male SD rats, 10 mg/kg i.v., read-out: VdSS
measured_quantity: Vd (L/kg)

molecule="CCCCCOc1ccc(-c2ccc(-c3ccc(C(=O)N[C@H]4C[C@@H](O)[C@@H](OC[C@H]5CCC[N+]5(C)C)NC(=O)[C@@H]5[C@@H](O)[C@@H](C)CN5C(=O)[C@H]([C@@H](C)O)NC(=O)[C@H]([C@H](O)[C@@H](O)c5ccc(O)cc5)NC(=O)[C@@H]5C[C@@H](O)CN5C(=O)[C@H]([C@@H](C)O)NC4=O)cc3)cc2)cc1 [Compound of formula (I)]" quantitative_readout=1.9

---

Assay: Pharmacokinetic study after single intravenous injection
Assay type: in vivo, SD rats
Conditions: Sprague-Dawley, rat, plasma, male SD rats, 10 mg/kg i.v.
measured_quantity: clearance (mL/min/kg)

molecule="CCCCCOc1ccc(-c2ccc(-c3ccc(C(=O)N[C@H]4C[C@@H](O)[C@@H](OC[C@H]5CCC[N+]5(C)C)NC(=O)[C@@H]5[C@@H](O)[C@@H](C)CN5C(=O)[C@H]([C@@H](C)O)NC(=O)[C@H]([C@H](O)[C@@H](O)c5ccc(O)cc5)NC(=O)[C@@H]5C[C@@H](O)CN5C(=O)[C@H]([C@@H](C)O)NC4=O)cc3)cc2)cc1 [Compound of formula (I)]" unit_label=mL/min/kg quantitative_readout=0.9

---

Assay: Pharmacokinetic study after single intravenous injection
Type: in vivo, SD rats
Conditions: Sprague-Dawley, rat, plasma, male SD rats, 10 mg/kg i.v.
measured_quantity: half-life (h)

structure_smiles_string=CCCCCOc1ccc(-c2ccc(-c3ccc(C(=O)N[C@H]4C[C@@H](O)[C@@H](OC[C@H]5CCC[N+]5(C)C)NC(=O)[C@@H]5[C@@H](O)[C@@H](C)CN5C(=O)[C@H]([C@@H](C)O)NC(=O)[C@H]([C@H](O)[C@@H](O)c5ccc(O)cc5)NC(=O)[C@@H]5C[C@@H](O)CN5C(=O)[C@H]([C@@H](C)O)NC4=O)cc3)cc2)cc1 measured_quantity=half-life quantitative_readout=27.7

---

Assay: Pharmacokinetic study after single intravenous injection
Format: in vivo, SD rats
Conditions: Sprague-Dawley, rat, plasma, male SD rats, 10 mg/kg i.v., read-out: AUC0-96
measured_quantity: AUC(0-t) (µg·h/mL)

structure_smiles_string=CCCCCOc1ccc(-c2ccc(-c3ccc(C(=O)N[C@H]4C[C@@H](O)[C@@H](OC[C@H]5CCC[N+]5(C)C)NC(=O)[C@@H]5[C@@H](O)[C@@H](C)CN5C(=O)[C@H]([C@@H](C)O)NC(=O)[C@H]([C@H](O)[C@@H](O)c5ccc(O)cc5)NC(=O)[C@@H]5C[C@@H](O)CN5C(=O)[C@H]([C@@H](C)O)NC4=O)cc3)cc2)cc1 unit_label=µg·h/mL quantitative_readout=174

---

Test: Pharmacokinetic study after single intravenous injection
Assay type: in vivo, SD rats
Details: Sprague-Dawley, rat, plasma, male SD rats, 10 mg/kg i.v.
measured_quantity: AUC(0-inf) (µg·h/mL)

structure_smiles_string=CCCCCOc1ccc(-c2ccc(-c3ccc(C(=O)N[C@H]4C[C@@H](O)[C@@H](OC[C@H]5CCC[N+]5(C)C)NC(=O)[C@@H]5[C@@H](O)[C@@H](C)CN5C(=O)[C@H]([C@@H](C)O)NC(=O)[C@H]([C@H](O)[C@@H](O)c5ccc(O)cc5)NC(=O)[C@@H]5C[C@@H](O)CN5C(=O)[C@H]([C@@H](C)O)NC4=O)cc3)cc2)cc1 unit_label=µg·h/mL quantitative_readout=191
